System: SK-LMS-1
Method summary: relative viability vs DMSO control (72 h) (fraction); higher = more viable cells
Condition parameters: 1.111 µM
Measure: relative viability
Could you keep your reply to the number by itself?

{"columns": ["Molecule", "relative viability"],
 "data": [
  ["COc1cc(OC)cc(N(CCNC(C)C)c2ccc3ncc(-c4cnn(C)c4)nc3c2)c1 [Erdafitinib]", 0.839],
  ["Cc1cc(Nc2ncc(Cl)c(Nc3ccccc3S(=O)(=O)C(C)C)n2)c(OC(C)C)cc1C1CCNCC1 [Ceritinib]", 0.96],
  ["COc1cc2nccc(Oc3ccc(NC(=O)C4(C(=O)Nc5ccc(F)cc5)CC4)cc3)c2cc1OC [Cabozantinib]", 0.339],
  ["COc1cc2ncnc(Nc3cccc(Cl)c3F)c2cc1OC(=O)N1CCN(C)C[C@H]1C [AZD-3759]", 1.07],
  ["COc1cc2ncnc(Nc3ccc(F)c(Cl)c3)c2cc1NC(=O)/C=C/CN1CCCCC1 [Dacomitinib]", 0.916]
]}

Field relative viability (system: SK-LMS-1) for entry NC(=O)c1cccc2cn(-c3ccc([C@@H]4CCCNC4)cc3)nc12 [Niraparib] = 1.09

Field relative viability (system: SK-LMS-1) for entry N#Cc1ccnc(N2C(=O)CC[C@H]2C(=O)N(c2cncc(F)c2)[C@H](C(=O)NC2CC(F)(F)C2)c2ccccc2Cl)c1 [Ivosidenib] = 0.997

Field relative viability (system: SK-LMS-1) for entry CO[C@@H]1[C@H](N(C)C(=O)c2ccccc2)C[C@H]2O[C@]1(C)n1c3ccccc3c3c4c(c5c6ccccc6n2c5c31)C(=O)NC4 [Midostaurin] = 0.392

Field relative viability (system: SK-LMS-1) for entry CNC(=O)c1cc(Oc2ccc(NC(=O)Nc3ccc(Cl)c(C(F)(F)F)c3)cc2)ccn1 [Sorafenib] = 1.07

Field relative viability (system: SK-LMS-1) for entry CO[C@H]1C[C@@H]2CC[C@@H](C)[C@@](O)(O2)C(=O)C(=O)N2CCCC[C@H]2C(=O)O[C@H]([C@H](C)C[C@@H]2CC[C@@H](O)[C@H](OC)C2)CC(=O)[C@H](C)/C=C(\C)[C@@H](O)[C@@H](OC)C(=O)[C@H](C)C[C@H](C)/C=C/C=C/C=C/1C [Rapamycin] = 0.554

----------
Recorded relative viability by entry
Test system: A204
Method summary: relative viability vs DMSO control (72 h) (fraction); higher = more viable cells
Condition parameters: 0.00152 µM
Could you keep your reply to the number by itself?

Example entries and their recorded answers appear below.
{"columns": ["Smi", "Result value"],
 "data": [
  ["Cc1cc(Nc2ncc(Cl)c(Nc3ccccc3S(=O)(=O)C(C)C)n2)c(OC(C)C)cc1C1CCNCC1", 1.08],
  ["CC[C@@H]1C(=O)N(C)c2cnc(Nc3ccc(C(=O)N[C@H]4CC[C@H](N5CCN(CC6CC6)CC5)CC4)cc3OC)nc2N1C(C)C", 1.07],
  ["CCCCCCCCCCCCCCCCCCOP(=O)([O-])OC1CC[N+](C)(C)CC1", 1.07]
]}

Field relative viability (system: A204) for entry COc1cc2ncnc(Nc3ccc(F)c(Cl)c3)c2cc1NC(=O)/C=C/CN1CCCCC1 = 1.09

Field relative viability (system: A204) for entry Cc1nc(Nc2ncc(C(=O)Nc3c(C)cccc3Cl)s2)cc(N2CCN(CCO)CC2)n1 = 1.06

Field relative viability (system: A204) for entry CCCS(=O)(=O)N[C@H]1C[C@@H](N(C)c2ncnc3[nH]ccc23)C1 = 1.07

Field relative viability (system: A204) for entry COc1cc(OC)cc(N(CCNC(C)C)c2ccc3ncc(-c4cnn(C)c4)nc3c2)c1 = 0.971

Field relative viability (system: A204) for entry COc1cc2nccc(Oc3ccc(NC(=O)NC4CC4)c(Cl)c3)c2cc1C(N)=O = 1.03

----------
Test system: RD
Method summary: relative viability vs DMSO control (72 h) (fraction); higher = more viable cells
Condition parameters: 0.00152 µM
Measure: relative viability
Could you keep your reply to the number by itself?

Field relative viability (system: RD) for entry COc1cc2nccc(Oc3ccc(NC(=O)C4(C(=O)Nc5ccc(F)cc5)CC4)cc3)c2cc1OC [Cabozantinib] = 1.09

Field relative viability (system: RD) for entry Cc1ccc(C(=O)OCc2ccc([C@@H](CN)C(=O)Nc3ccc4cnccc4c3)cc2)c(C)c1 = 1.12

----------
Test system: SYO-1
Method summary: relative viability vs DMSO control (72 h) (fraction); higher = more viable cells
Condition parameters: 0.04115 µM
Please respond with fulfilled when measured relative viability is strictly beneath 0.9, and with not fulfilled in all other cases.

Known results for molecules:
{"columns": ["Molecule", "Category"],
 "data": [
  ["C[C@@H](Oc1cc(-c2cnn(C3CCNCC3)c2)cnc1N)c1c(Cl)ccc(F)c1Cl [Crizotinib]", "not fulfilled"],
  ["NC(=O)c1cccc2cn(-c3ccc([C@@H]4CCCNC4)cc3)nc12 [Niraparib]", "fulfilled"],
  ["Cc1cn(-c2cc(NC(=O)c3ccc(C)c(Nc4nccc(-c5cnccn5)n4)c3)cc(C(F)(F)F)c2)cn1 [Radotinib]", "not fulfilled"],
  ["COc1cc2c(Oc3ccc4[nH]c(C)cc4c3F)ccnc2cc1OCC1(N)CC1 [Anlotinib]", "fulfilled"]
]}

Ask: Consider the molecule CCN(c1cc(-c2ccc(CN3CCOCC3)cc2)cc(C(=O)NCc2c(C)cc(C)[nH]c2=O)c1C)C1CCOCC1 [Tazemetostat] . Is its relative viability strictly less than 0.9?
Result: not fulfilled

----------
Tested on: SW684
Method summary: relative viability vs DMSO control (72 h) (fraction); higher = more viable cells
Condition parameters: 1.111 µM
Measure: relative viability
Could you keep your reply to the number by itself?

Example entries and their recorded answers appear below.
{"columns": ["Smi", "Result value"],
 "data": [
  ["CN1CCN(CCOc2cc(OC3CCOCC3)c3c(Nc4c(Cl)ccc5c4OCO5)ncnc3c2)CC1", 1.07],
  ["COc1cc2c(Oc3ccc4[nH]c(C)cc4c3F)ccnc2cc1OCC1(N)CC1", 1.07]
]}

Please find the next compound below.
Quick note, relative viability for NC(=O)c1cccc2cn(-c3ccc([C@@H]4CCCNC4)cc3)nc12 landed at 1.13

----------
Recorded relative viability by entry
Tested on: RD-ES
Method summary: relative viability vs DMSO control (72 h) (fraction); higher = more viable cells
Condition parameters: 0.04115 µM
Could you keep your reply to the number by itself?

Example entries and their recorded answers appear below.
{"columns": ["Compound", "Result value"],
 "data": [
  ["Cc1ccc(NC(=O)c2ccc(CN3CCN(C)CC3)cc2)cc1Nc1nccc(-c2cccnc2)n1", 0.961],
  ["CNC(=O)c1cc(Oc2ccc(NC(=O)Nc3ccc(Cl)c(C(F)(F)F)c3)cc2)ccn1", 0.987],
  ["N#Cc1ccnc(N2C(=O)CC[C@H]2C(=O)N(c2cncc(F)c2)[C@H](C(=O)NC2CC(F)(F)C2)c2ccccc2Cl)c1", 0.986]
]}

Quick note, relative viability for COc1cc2ncnc(Nc3ccc(F)c(Cl)c3)c2cc1NC(=O)/C=C/CN1CCCCC1 landed at 1.01

Quick note, relative viability for Cc1cc(Nc2ncc(Cl)c(Nc3ccccc3S(=O)(=O)C(C)C)n2)c(OC(C)C)cc1C1CCNCC1 landed at 0.943

Quick note, relative viability for NC(=O)c1cccc2cn(-c3ccc([C@@H]4CCCNC4)cc3)nc12 landed at 0.966

Quick note, relative viability for Cc1nc(Nc2ncc(C(=O)Nc3c(C)cccc3Cl)s2)cc(N2CCN(CCO)CC2)n1 landed at 0.949

Quick note, relative viability for COc1cc2nccc(Oc3ccc(NC(=O)NC4CC4)c(Cl)c3)c2cc1C(N)=O landed at 0.942

Quick note, relative viability for C[C@@H](Oc1cc(-c2cnn(C3CCNCC3)c2)cnc1N)c1c(Cl)ccc(F)c1Cl landed at 0.972

Quick note, relative viability for CN1CCN(CCOc2cc(OC3CCOCC3)c3c(Nc4c(Cl)ccc5c4OCO5)ncnc3c2)CC1 landed at 0.982

Quick note, relative viability for CO[C@@H]1[C@H](N(C)C(=O)c2ccccc2)C[C@H]2O[C@]1(C)n1c3ccccc3c3c4c(c5c6ccccc6n2c5c31)C(=O)NC4 landed at 0.923

----------
Test system: RD-ES
Method summary: standardised AUC of viability dose-response curve (72 h) (fraction (0-1)); higher = less growth inhibition (more resistant)
Measure: standardised AUC
Could you keep your reply to the number by itself?

{"columns": ["Molecule", "Experimental system", "Result value"],
 "data": [
  ["Cc1c(F)cc(C(=O)NC2CC2)cc1-c1ccc(C(=O)NCC(C)(C)C)cn1 [LOSMAPIMOD]", "RD-ES", 0.95],
  ["Cc1ccc(NC(=O)c2ccc(CN3CCN(C)CC3)cc2)cc1Nc1nccc(-c2cccnc2)n1 [IMATINIB]", "RD-ES", 0.983],
  ["COc1cc2nccc(Oc3ccc(NC(=O)C4(C(=O)Nc5ccc(F)cc5)CC4)cc3)c2cc1OC [CABOZANTINIB]", "RD-ES", 0.919],
  ["COc1cc(OC)cc(N(CCNC(C)C)c2ccc3ncc(-c4cnn(C)c4)nc3c2)c1 [ERDAFITINIB]", "RD-ES", 0.891],
  ["Cc1cc(Nc2ncc(Cl)c(Nc3ccccc3S(=O)(=O)C(C)C)n2)c(OC(C)C)cc1C1CCNCC1 [CERITINIB]", "RD-ES", 0.784],
  ["CCCS(=O)(=O)N[C@H]1C[C@@H](N(C)c2ncnc3[nH]ccc23)C1 [ABROCITINIB]", "RD-ES", 1],
  ["C[C@@H](Oc1cc(-c2cnn(C3CCNCC3)c2)cnc1N)c1c(Cl)ccc(F)c1Cl [CRIZOTINIB]", "RD-ES", 0.758],
  ["Cc1nc(Nc2ncc(C(=O)Nc3c(C)cccc3Cl)s2)cc(N2CCN(CCO)CC2)n1 [DASATINIB]", "RD-ES", 0.949],
  ["Cc1cccc(-c2[nH]c(CNc3ccccc3F)nc2-c2ccc3ncnn3c2)n1 [VACTOSERTIB]", "RD-ES", 0.99]
]}

Please find the next molecule below.
Field standardised AUC (system: RD-ES) for entry C=CC(=O)Nc1cccc(Nc2nc(Nc3ccc(N4CCN(C(C)=O)CC4)cc3OC)ncc2C(F)(F)F)c1 [ROCILETINIB] = 0.857
